Molecular target: H^+ /K^+ -ATPase (Homo sapiens, UniProt P20648)
Sequence (P20648 whole entry): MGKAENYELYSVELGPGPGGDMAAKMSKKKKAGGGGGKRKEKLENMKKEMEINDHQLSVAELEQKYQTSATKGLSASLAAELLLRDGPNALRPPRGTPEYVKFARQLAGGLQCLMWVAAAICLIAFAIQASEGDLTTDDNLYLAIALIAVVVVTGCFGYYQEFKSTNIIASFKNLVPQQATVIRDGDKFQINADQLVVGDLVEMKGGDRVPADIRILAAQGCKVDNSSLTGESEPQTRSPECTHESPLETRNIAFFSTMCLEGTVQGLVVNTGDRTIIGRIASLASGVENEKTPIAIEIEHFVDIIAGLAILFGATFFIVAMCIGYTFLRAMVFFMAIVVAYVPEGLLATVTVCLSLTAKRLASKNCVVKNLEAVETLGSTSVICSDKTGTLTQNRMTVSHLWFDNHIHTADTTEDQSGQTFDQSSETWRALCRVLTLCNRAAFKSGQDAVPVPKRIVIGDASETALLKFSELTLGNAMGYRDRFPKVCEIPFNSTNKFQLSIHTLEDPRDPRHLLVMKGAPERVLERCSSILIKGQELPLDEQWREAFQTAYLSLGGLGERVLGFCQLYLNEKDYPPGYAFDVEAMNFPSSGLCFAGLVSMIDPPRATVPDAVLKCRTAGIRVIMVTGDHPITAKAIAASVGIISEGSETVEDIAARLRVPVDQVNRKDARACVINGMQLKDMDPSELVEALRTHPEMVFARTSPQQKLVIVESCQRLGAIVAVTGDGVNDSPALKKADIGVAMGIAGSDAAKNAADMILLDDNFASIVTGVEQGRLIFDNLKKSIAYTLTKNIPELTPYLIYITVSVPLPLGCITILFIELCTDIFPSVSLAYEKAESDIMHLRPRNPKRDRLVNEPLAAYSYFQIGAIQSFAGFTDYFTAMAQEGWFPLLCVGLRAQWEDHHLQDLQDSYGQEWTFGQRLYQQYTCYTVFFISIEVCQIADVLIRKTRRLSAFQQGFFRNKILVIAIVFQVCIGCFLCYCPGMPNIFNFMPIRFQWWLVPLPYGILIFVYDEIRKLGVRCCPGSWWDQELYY
Sequence (P51164 whole entry partner): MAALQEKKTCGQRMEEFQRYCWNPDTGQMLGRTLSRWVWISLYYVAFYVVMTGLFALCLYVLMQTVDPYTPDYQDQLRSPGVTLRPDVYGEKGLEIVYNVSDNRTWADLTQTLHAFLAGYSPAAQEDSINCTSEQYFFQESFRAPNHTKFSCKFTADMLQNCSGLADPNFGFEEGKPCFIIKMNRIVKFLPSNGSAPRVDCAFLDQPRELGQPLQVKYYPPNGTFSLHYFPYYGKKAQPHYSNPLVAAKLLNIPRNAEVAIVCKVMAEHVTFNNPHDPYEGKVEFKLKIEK
Assay: Inhibition of H^+ /K^+ -ATPase (comparison experiment / enzyme test)
endpoint: pIC50
# pIC50: negative log10 of molar concentration; output just the value

Output pIC50 of COc1c(C)cnc(C[S+]([O-])c2nc3cc(C4=NCCO4)ccc3[nH]2)c1C (stereo not shown) [Substance A]
5.28

The values you see were collected from patent US4818760A.
